molecular target: HLA-B*39:01; assay: IEDB peptide-MHC binding, purified MHC/competitive/fluorescence; filed as Kd, often an IC50 or EC50 that approximates it; bounds were set here for any values at or beyond the usual limits of such assays; details: source organism: Escherichia coli str. K-12 substr. MG1655
pKd: −log10 of the molar value.
EXPERIMENTAL ENDPOINT: pKd

RYDKSAADL
≤ 4.70

----------
molecular target: HLA-B*40:01; experiment: IEDB peptide-MHC binding, purified MHC/competitive/radioactivity; filed as Kd, often an IC50 or EC50 that approximates it; bounds were set here for any values at or beyond the usual limits of such assays; conditions: source organism: Dengue virus 1 Nauru/West Pac/1974
EXPERIMENTAL ENDPOINT: Kd (nM)

KEGDQYIYM
45.1

----------
target: HLA-A*02:11; assay: IEDB peptide-MHC binding, purified MHC/direct/fluorescence; filed as Kd, often an IC50 or EC50 that approximates it; bounds were set here for any values at or beyond the usual limits of such assays; conditions: source organism: Vibrio cholerae O395
EXPERIMENTAL ENDPOINT: Kd

VVSEIDLQW
≥ 20 µM

----------
biological target: HLA-A*02:06; assay: IEDB peptide-MHC binding, purified MHC/competitive/radioactivity; filed as Kd, often an IC50 or EC50 that approximates it; bounds were set here for any values at or beyond the usual limits of such assays; conditions: source organism: Dengue virus 4 Philippines/H241/1956
# Kd per record follows
EXPERIMENTAL ENDPOINT: Kd (nM)

FLDLPLPWAA
59.3
SLVMLLVHYA
423
TSMAMTCIAV
9.2
KLTDWDFVV
2.33

----------
target: HLA-B*15:17; test: IEDB peptide-MHC binding, purified MHC/direct/fluorescence; filed as Kd, often an IC50 or EC50 that approximates it; bounds were set here for any values at or beyond the usual limits of such assays; details: source organism: Brucella melitensis
EXPERIMENTAL ENDPOINT: Kd (nM)

KAGVRGWFL
2280

----------
biological target: HLA-A*24:02; assay: IEDB peptide-MHC binding, purified MHC/competitive/radioactivity; filed as Kd, often an IC50 or EC50 that approximates it; bounds were set here for any values at or beyond the usual limits of such assays; conditions: source organism: Lassa virus Josiah
pKd: −log10 of the molar value.
EXPERIMENTAL ENDPOINT: pKd

DCIMTSYQYL
5.64

----------
molecular target: HLA-B*15:03; experiment: IEDB peptide-MHC binding, purified MHC/competitive/radioactivity; filed as Kd, often an IC50 or EC50 that approximates it; bounds were set here for any values at or beyond the usual limits of such assays; conditions: source organism: Vaccinia virus Copenhagen
# Kd per record follows
EXPERIMENTAL ENDPOINT: Kd (nM)

NLYSFTIVF
31.2
LQNSVVLQF
6.22
SATYATVPF
12

----------
target: HLA-B*07:02; test: IEDB peptide-MHC binding, purified MHC/direct/fluorescence; filed as Kd, often an IC50 or EC50 that approximates it; bounds were set here for any values at or beyond the usual limits of such assays; conditions: source organism: Entamoeba histolytica
pKd: −log10 of the molar value.
EXPERIMENTAL ENDPOINT: pKd

KLMPGSIYV
≤ 4.70

----------
molecular target: HLA-A*02:01; assay: IEDB peptide-MHC binding, purified MHC/competitive/fluorescence; bounds were set here for any values at or beyond the usual limits of such assays; details: source organism: Vaccinia virus WR
EXPERIMENTAL ENDPOINT: IC50 (µM)

LFTEQAFYT
68.1

----------
target: HLA-A*02:01; test: IEDB peptide-MHC binding, purified MHC/competitive/fluorescence; filed as Kd, often an IC50 or EC50 that approximates it; bounds were set here for any values at or beyond the usual limits of such assays; conditions: source organism: Brucella melitensis bv. 1 str. 16M
EXPERIMENTAL ENDPOINT: Kd

AVGVVCTGL
≥ 20 µM

----------
biological target: HLA-A*02:06; experiment: IEDB peptide-MHC binding, purified MHC/competitive/radioactivity; filed as Kd, often an IC50 or EC50 that approximates it; bounds were set here for any values at or beyond the usual limits of such assays; conditions: source organism: SARS coronavirus Tor2
EXPERIMENTAL ENDPOINT: Kd

LIANIFTPLV
15.7 nM
FLLFLVLIML
2920 nM
LMWFIISIV
26.8 nM
YVVVHGYFT
171 nM
LLLEWLAEVV
0.525 nM

----------
target: HLA-B*57:01; test: IEDB peptide-MHC binding, purified MHC/competitive/fluorescence; bounds were set here for any values at or beyond the usual limits of such assays; details: source organism: Homo sapiens
EXPERIMENTAL ENDPOINT: IC50

STIRLLTSL
853 nM

----------
target: HLA-A*24:03; assay: IEDB peptide-MHC binding, purified MHC/direct/fluorescence; filed as Kd, often an IC50 or EC50 that approximates it; bounds were set here for any values at or beyond the usual limits of such assays; conditions: source organism: Salmonella enterica subsp. enterica serovar Virchow
pKd: −log10 of the molar value.
EXPERIMENTAL ENDPOINT: pKd

CTWPEASRY
≤ 4.70

----------
target: HLA-A*03:01; experiment: IEDB peptide-MHC binding, purified MHC/competitive/radioactivity; filed as Kd, often an IC50 or EC50 that approximates it; bounds were set here for any values at or beyond the usual limits of such assays; conditions: source organism: Dengue virus 1 Brazil/97-11/1997
EXPERIMENTAL ENDPOINT: Kd (nM)

VTNPAVLRK
4.28
TLWEGSPGK
328
GLAMGIMMLK
12.1

----------
biological target: HLA-B*58:01; test: IEDB peptide-MHC binding, purified MHC/direct/fluorescence; filed as Kd, often an IC50 or EC50 that approximates it; bounds were set here for any values at or beyond the usual limits of such assays; settings: source organism: Ebola virus - Eckron (Zaire, 1976)
EXPERIMENTAL ENDPOINT: Kd (nM)

KCNPNLHYW
2600

----------
target: HLA-A*11:01; assay: IEDB peptide-MHC binding, purified MHC/direct/fluorescence; filed as Kd, often an IC50 or EC50 that approximates it; bounds were set here for any values at or beyond the usual limits of such assays; conditions: source organism: SARS-CoV1
# Kd per record follows
EXPERIMENTAL ENDPOINT: Kd

LTDDMIAAY
4.05 µM
RVDFCGKGY
7.73 µM
EHYVRITGL
≥ 24.3 µM

----------
molecular target: HLA-B*53:01; test: IEDB peptide-MHC binding, purified MHC/competitive/fluorescence; bounds were set here for any values at or beyond the usual limits of such assays; details: source organism: Human immunodeficiency virus 1
EXPERIMENTAL ENDPOINT: IC50

WPVKVIHT
≥ 20 µM

----------
target: HLA-A*68:02; test: IEDB peptide-MHC binding, purified MHC/competitive/radioactivity; filed as Kd, often an IC50 or EC50 that approximates it; bounds were set here for any values at or beyond the usual limits of such assays; conditions: source organism: Dengue virus 2 Jamaica/1409/1983
pKd: −log10 of the molar value.
# pKd per record follows
EXPERIMENTAL ENDPOINT: pKd

SSAAQRRGRI
7.29
TAAAWYLWEV
8.39
ETWMSSEGA
8.54
TTHFQRALI
8.89
LTAALLLLV
8.27
MVSILASSLL
7.35
ESSPNPTIEA
7.28
WTMKILIGVI
6.74

----------
target: HLA-A*26:01; assay: IEDB peptide-MHC binding, purified MHC/competitive/radioactivity; filed as Kd, often an IC50 or EC50 that approximates it; bounds were set here for any values at or beyond the usual limits of such assays; conditions: source organism: Mammarenavirus brazilense
pKd: −log10 of the molar value.
EXPERIMENTAL ENDPOINT: pKd

GYKETPFLT
≤ 4.11
MIDNQKLSY
≤ 4.46

----------
biological target: HLA-A*23:01; assay: IEDB peptide-MHC binding, purified MHC/direct/fluorescence; filed as Kd, often an IC50 or EC50 that approximates it; bounds were set here for any values at or beyond the usual limits of such assays; details: source organism: Vibrio cholerae O395
EXPERIMENTAL ENDPOINT: Kd

VVSEIDLQW
≥ 20 µM

----------
target: HLA-A*24:03; test: IEDB peptide-MHC binding, purified MHC/direct/fluorescence; filed as Kd, often an IC50 or EC50 that approximates it; bounds were set here for any values at or beyond the usual limits of such assays; details: source organism: Haemophilus influenzae
pKd: −log10 of the molar value.
EXPERIMENTAL ENDPOINT: pKd

VYFSPWFFL
7.70

----------
target: HLA-A*02:01; test: IEDB peptide-MHC binding, purified MHC/direct/fluorescence; filed as Kd, often an IC50 or EC50 that approximates it; bounds were set here for any values at or beyond the usual limits of such assays; details: source organism: Camelpox virus CMS
EXPERIMENTAL ENDPOINT: Kd

REVFYFGKF
≥ 20 µM
